Quick list: fold change permeability per entry.
Experiment: compounds altering in vitro BBB leakiness – cell-based, FITC-avidin fluorescence, HTS, primary screen (AID 1963498); also: test concentration not given here
Settings: brain endothelial barrier, actives lie on both sides
Activity calls are given as the source filed them. Rule as the data show it: active = fold change permeability below about 0.7 or above about 1.3; inactive = in between.

CC(C)(C)c1ccc(S(=O)(=O)/C=C/C#N)cc1 : 1.2 (inactive)
COc1ccc(S(=O)(=O)N(CC(=O)NO)CC(C)C)cc1 : 1.1 (inactive)
CC(C)Cn1c(=O)n(C)c(=O)c2[nH]cnc21 : 0.7 (active)
O=C(O)C1=CCCNC1 : 1 (inactive)

Note: attention shifts to another entry.
q: // query fold change permeability value for entry COc1cc([C@@H]2c3cc4c(cc3[C@@H](O[C@@H]3O[C@@H]5CO[C@@H](C)O[C@H]5[C@H](O)[C@H]3O)[C@H]3COC(=O)[C@H]23)OCO4)cc(OC)c1O
a: 0.9 (inactive)

* * *

Assay: compounds altering in vitro BBB leakiness – cell-based, FITC-avidin fluorescence, HTS, primary screen (AID 1963498); also: test concentration not given here
Details: brain endothelial barrier, actives lie on both sides
Calls of active or inactive are those of the source. No stated cut-off is given here; in the data, active means fold change permeability below about 0.7 or above about 1.3; inactive means in between.
Quick list: fold change permeability per entry.

Guide cases for fold change permeability, answers given:
NC1=NCC2c3ccccc3Cc3ccccc3N12 (configuration not stated) : 0.8 (inactive)
CC(=O)[C@]1(O)Cc2c(O)c3c(c(O)c2[C@@H](O[C@H]2C[C@H](N)[C@H](O)[C@H](C)O2)C1)C(=O)c1ccccc1C3=O : 3.4 (active)
Cc1nnc(SCC2=C(C(=O)O)N3C(=O)[C@@H](NC(=O)Cn4cnnn4)[C@H]3SC2)s1 : 0.9 (inactive)
CC1(C)CCC2=C(O1)c1ccccc1C(=O)C2=O : 1.8 (active)
COc1ccc(-c2cc(=O)c3c(O)c(OC)c(OC)cc3o2)cc1O : 1.6 (active)

q: // query fold change permeability value for entry CC(=O)CCCCn1c(=O)c2c(ncn2C)n(C)c1=O
a: 1 (inactive)

* * *

Test: compounds altering in vitro BBB leakiness – cell-based, FITC-avidin fluorescence, HTS, primary screen (AID 1963498); also: test concentration not given here
Details: brain endothelial barrier, actives lie on both sides
Activity calls are given as the source filed them. No stated cut-off is given here; in the data, active means fold change permeability below about 0.7 or above about 1.3; inactive means in between.
Your response should consist of one outcome taken from active, inactive

NC(N)=NCCCCN=C(N)N : inactive
N#Cc1c(N2CCCC2)nc(N)c2c(N)nc(N3CCCC3)cc12 : active

q: How was Cc1cccc(Nc2ccccc2C(=O)O)c1 classified in this test?
a: inactive

q: How was NCC(O)C1CCCCCCC1 (stereo not drawn) classified in this test?
a: inactive

q: How was Oc1ccc(O)cc1 classified in this test?
a: active

q: How was O=C(O)CP(=O)(O)O classified in this test?
a: inactive

q: How was CC(=O)Nc1ccc(C(=O)Nc2ccc(F)cc2N)cc1 classified in this test?
a: inactive

q: How was Cc1ccc(/C(=C\CN2CCCC2)c2ccccn2)cc1 classified in this test?
a: inactive

* * *

Test: compounds altering in vitro BBB leakiness – cell-based, FITC-avidin fluorescence, HTS, primary screen (AID 1963498); also: test concentration not given here
Conditions: brain endothelial barrier, actives lie on both sides
Binary classification by fold change permeability, with 1 as an inclusive lower bound for class 1; all other cases are class 0.

O=C(Cc1ccccc1)Nc1nnc(CCSCCc2nnc(NC(=O)Cc3ccccc3)s2)s1 : class 1
O=C(O)C1CCNCC1 : class 1
C[C@@H](N)C1CCC(C(=O)Nc2ccncc2)CC1 (stereo partly specified) : class 1
COC(=O)C1=C(C)NC(C)=C([N+](=O)[O-])C1c1ccccc1C(F)(F)F (stereo unspecified) : class 1

q: Check if fold change permeability >= 1 (inclusive). Item: COc1ccc(S(=O)(=O)Nc2c(C)cc(C)cc2C)cc1
a: class 1

q: Check if fold change permeability >= 1 (inclusive). Item: Nc1ncnc2c1nc(Sc1ccc(Cl)cc1)n2C1OC2COP(=O)(O)O[C@@H]2[C@@H]1O (stereo partly specified)
a: class 0

From: PubChem BioAssay
